B1: Homeobox protein cut-like 1, residues 941 to 1008; numbered along this chain, P39880 (parent)
chain: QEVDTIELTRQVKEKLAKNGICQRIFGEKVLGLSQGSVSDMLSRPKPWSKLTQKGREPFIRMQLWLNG

variants of: B1; test: abundance fitness (aPCA) (normalised: wild type 0, dead -1); higher = more abundant; growth selection in yeast, the domain comes from the species named; details: Homo sapiens
Measured parameter: abundance fitness
One number for each entry.

Worked cases, abundance fitness given:
Residue sequence	Measured parameter	Meas value
QEVDTIELTRQVKEKLAKNGECQRIFGEKVLGLSQGSVSDMLSRPKPWSKLTQKGREPFIRMQLWLNG [I21E]	abundance fitness	-0.22
QEVDTIELTRQVKEWLAKNGICQRIFGEKVLGLSQGSVSDMLSRPKPWSKLTQKGREPFIRMQLWLNG [K15W]	abundance fitness	-0.238
HEVDTIELTRQVKEKLAKNGICQRIFGEKVLGLSQGSVSDMLSRPKPWSKLTQKGREPFIRMQLWLNG [Q1H]	abundance fitness	-0.673

Consider the following items and state reported abundance fitness for each.
1. QEVDTIELTRQVKEKLAKNGICQRIFGERVLGLSQGSVSDMLSRPKPWSKLTQKGREPFIRMQLWLNG [K29R]
2. QEVDTIELTRQVKEKLAKNGICQRIFGEKVLGLSQGSVSDSLSRPKPWSKLTQKGREPFIRMQLWLNG [M41S]

Marked response:
1. -0.05
2. -0.263

Hi, could you look up abundance fitness for each item in my list?
1. QEVDTIELTYQVKEKLAKNGICQRIFGEKVLGLSQGSVSDMLSRPKPWSKLTQKGREPFIRMQLWLNG [R10Y]
2. QEVDTIELTRQVKEKLAKNGICQRIFGEKVLGLSQGSVSDMLSRPEPWSKLTQKGREPFIRMQLWLNG [K46E]
3. QEVDTIELTRQVKEKLAKNGICQRIFGEKVLGLSQGSVSDMLSRPKPWGKLTQKGREPFIRMQLWLNG [S49G]
4. QEVDTIELTRQVKEKLAKNGICQRIKGEKVLGLSQGSVSDMLSRPKPWSKLTQKGREPFIRMQLWLNG [F26K]
5. QEVDTIELTRQVKEKLAKNGICQRIFGEKVLGLSQGSVSDMESRPKPWSKLTQKGREPFIRMQLWLNG [L42E]

Marked response:
[-0.306, -0.013, -0.133, -0.45, -0.281]

Numbers sourced from the Human Domainome abundance scans (Beltran et al. 2025).
